Experiment: Cytotoxicity by WST-8, uninfected Huh-7 cells
Settings: human
Measured parameter: CC50 at 48 h (µM)
Express it in µM; write the number only.

Input: Complete the entry with CC50 at 48 h for NC(=O)c1ncn([C@@H]2O[C@H](CO)[C@@H](O)[C@H]2O)n1 [RBV, reference compound]
Output: 144

Input: Please indicate CC50 at 48 h recorded for Cn1c(=O)c(-c2cccs2)nc2c(Cl)c3ncccc3cc21 [PS1240]
Output: 293

Input: Return value of CC50 at 48 h for input O=c1[nH]c2cc3cccnc3c(Cl)c2nc1-c1cccs1 [PS1097] , no commentary.
Output: 229

Input: Identify the reported CC50 at 48 h for the following entry. CC(C)OC(=O)[C@H](C)N[P@](=O)(OC[C@H]1O[C@@H](n2ccc(=O)[nH]c2=O)[C@](C)(F)[C@@H]1O)Oc1ccccc1 [SOF, Sofosbuvir, reference compound]
Output: 282

Input: Supply CC50 at 48 h value. Item: CC(C)c1nc2cc3cccnc3c(Cl)c2[nH]c1=O [PS462]
Output: 294

###

Test system: ZIKV^Br
Assay: Virus yield assay, ZIKV^Br on Vero TMPRSS cells
Format: cell-based
Conditions: Zika virus, 95% CI in brackets
Measured parameter: EC50
Report field: quantity (unit follows the number).

Input: Identify the reported EC50 for the following entry. "O=c1[nH]c2cc3cccnc3c(Cl)c2nc1-c1cccs1"
Output: 2660 nM

###

Experiment: in vitro
Details: simian
Measured parameter: CC50 (µM)
Supply the numeric figure in µM, leaving out any unit text.

Input: Note down CC50 recorded for O=c1[nH]c2cc3cccnc3c(Cl)c2nc1-c1cccs1 [PS1097]
Output: 86.2

###

Tested on: HSV2
Assay: Plaque reduction assay, HSV2 on A549 cells
Type: cell-based, herpes simplex virus 2
Conditions: Human alphaherpesvirus 2
Measured parameter: EC50

Input: For the compound "O=c1[nH]c2cc3cccnc3c(Cl)c2nc1-c1cccs1" , give its measured EC50 value.
Output: > 50 µM

###

Tested on: Huh-7 cells
Test: Cytotoxicity by WST-8, uninfected Huh-7 cells
Settings: read-out: CC50 Huh-7; Table S2, this paper data
Measured parameter: CC50
Kindly format the answer as number then unit.

Input: Given O=c1nc(NO)ccn1[C@@H]1O[C@H](CO)[C@@H](O)[C@H]1O [EIDD-1931, β‐D‐N4‐hydroxycytidine, reference compound] , respond with its CC50.
Output: 148 µM

###

Assay: in vitro
Conditions: simian, CC50, Vero TMPRSS cells (SARS-CoV-2^Mi row of Table 2); 95% CI in brackets
Measured parameter: CC50 (µM)
Lab book: enter the figure in µM, no units written.

Input: Specify measured CC50 for "O=c1[nH]c2cc3cccnc3c(Cl)c2nc1-c1cccs1" .
Output: 436

###

Experiment: Cytotoxicity by WST-8, VeroE6 cells
Format: cell-based
Conditions: simian; VeroE6 cells (ZIKV^Br row of Table 2); 95% CI in brackets
Description: Cytotoxic/cytostatic effects were evaluated in uninfected cells by WST‐8 (Orangu, Cell Guidance Systems): 1 × 10^4 cells/well in a 96‐well plate were incubated in the presence of threefold serial dilutions of compounds, from 0.30 to 218 μM, for 48 h. Medium was replaced with 50 μL of 10% WST‐8, in DMEM, 2% FBS. Following a 1‐h incubation at 37°C, optical density (OD) in wells was measured at 450 nm using Varioskan LUX (ThermoFisher Scientific). […]
Measured parameter: CC50 at 48 h (µM)
The figure you give is taken to be in µM; do not add the unit.

Input: Give the measured CC50 at 48 h for O=c1[nH]c2cc3cccnc3c(Cl)c2nc1-c1cccs1 [PS1097]
Output: 126
